# System: erythroid progenitor cells (EPCs)
# Test summary: Fetal hemoglobin (HbF) ELISA in day 7 erythroid progenitor cells;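 note: for fetal hemoglobin induction normalized to vehicle-treated cells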
# Assay type: cell-based, human
# Assay context: Homo sapiens, Erythroid progenitor cell, HbF ELISA, day 7 EPCs, 5 days; read-out: EPC ELISA (pEC50 category) (converted)
Measured EC50 accompanies every entry in the list below.

// below: answered compounds
CCc1c(C#N)c(SC(C(N)=O)c2ccccc2)nc(N2CC[C@@H](N)C2)c1C#N (stereo partly shown) = < 0.316 µM
CCc1c(C#N)c(S[C@@H](C(N)=O)c2ccccc2)nc(N(C)CCCO)c1C#N = 1 to 31.6 µM
N#Cc1c(SC(C(N)=O)c2ccccc2)nc(N2CC(NC(=O)CN)C2)c(C#N)c1C1CC1 (stereo not shown) = 1 to 31.6 µM
CCc1c(C#N)c(SC(C(N)=O)c2ccc(F)cc2)nc(N2CCC(N3CC(OC)C3)CC2)c1C#N (stereo not shown) = < 0.316 µM
CCc1c(C#N)c(SC(C(N)=O)c2ccccc2)nc(N2CCN(Cc3ccc[nH]3)CC2)c1C#N (stereo not shown) = 1 to 31.6 µM
CCc1c(C#N)c(SC(C(N)=O)c2cncc(C)c2)nc(N2CCCN(C)CC2)c1C#N (stereo not shown) = 0.316 to 1 µM

Read the next record carefully.
In: Answer with the recorded EC50 for the compound listed here: CCc1c(C#N)c(S[C@@H](C(N)=O)c2ccccc2)nc(N2CC[C@@H](NC(=O)OC(C)(C)C)[C@H](O)C2)c1C#N
Out: 0.316 to 1 µM
